test system: Synechocystis sp. PCC 6803; experiment: Growth inhibition of Synechocystis sp. PCC6803 incubated for 7 days; assay type: functional, organism-based; settings: Synechocystis sp. PCC 6803, 168 h

{"columns": ["smiles", "measure_unit", "qual", "EC50"],
 "data": [
  ["Cc1ncc(Cn2cc(COc3ccc([N+](=O)[O-])cc3)nn2)c(N)n1", "nM", ">", 100000],
  ["Cc1ncc(Cn2cc(COc3ccc(Cl)cc3)nn2)c(N)n1", "nM", ">", 100000],
  ["Cc1ncc(Cn2cc(COc3ccc(F)cc3)nn2)c(N)n1", "nM", ">", 100000],
  ["Cc1ncc(Cn2cc(COc3ccccc3)nn2)c(N)n1", "nM", ">", 100000],
  ["Cc1ncc(Cn2nnc(COC(=O)c3ccccc3Cl)c2I)c(N)n1", "nM", "=", 1170],
  ["Cc1ncc(Cn2cc(COC(=O)c3ccc(F)cc3)nn2)c(N)n1", "nM", "=", 2110],
  ["Cc1ccc(C(=O)OCc2cn(Cc3cnc(C)nc3N)nn2)cc1", "nM", "=", 1430],
  ["Cc1ncc(Cn2nnc(COC(=O)c3ccc([N+](=O)[O-])cc3)c2I)c(N)n1", "nM", "=", 1090]
]}
